Every entry's value here was drawn from patent US3947411A.

Quick list: Inhibition Area at μg, Cand. albicans per entry.
# Test system: Candida albicans
# method.description: Agar well inhibition zone test against fungi, Candida albicans (Table II)
# condition.details: quantity per well giving inhibition zone (500, 50, 5 μg tested); Sabouraud agar, 28°, 48 hours
endpoint: Inhibition Area at μg, Cand. albicans (µg)

> print(dat)
                                    molecule  inequality.operator  numeric.result
 1  CC(N1CCN(CCCl)CC1)C(O)(Cc1ccccc1)Cc1ccccc1 (stereo not shown) [XLV]                    =              50
 2  CC(N1CCN(Cc2cccnc2)CC1)C(O)(Cc1ccccc1)Cc1ccccc1 (stereo not shown) [XXIII]                    =             500
 3  CN1CCN(CCCCCCN2CCN(CCC(O)(Cc3ccccc3)Cc3ccccc3)CC2)CC1 [LXI]                    >             500
 4  CC(C(=Cc1ccccc1)Cc1ccccc1)N1CCN(CCN2CCCCC2)CC1 (stereo not shown) [XXX]                    =              50
 5  CCC(N1CCN(C)CC1)C(O)(Cc1ccccc1)Cc1ccccc1 (stereo not shown) [LVIII]                    =              50
 6  CCCCCCCCNCCCCCCN1CCN(C(C)C(=Cc2ccccc2)Cc2ccccc2)CC1 (stereo not shown) [XL]                    =               5
 7  C(=C(CCN1CCN(CCN2CCCCC2)CC1)Cc1ccccc1)c1ccccc1 [LXIV]                    =              50
 8  CC(C(=Cc1ccccc1)Cc1ccccc1)N1CCN(CCCl)CC1 (stereo not shown) [XLIV]                    =              50
 9  CN1CCN(CCC(O)(Cc2ccccc2)Cc2ccccc2)CC1 [LVI]                    =             500
10  CC(N1CCN(CCN2CCN(Cc3ccccc3)CC2)CC1)C(O)(Cc1ccccc1)Cc1ccccc1 (stereo not shown) [XII]                    =               5

###

# method.description: Solubility in water
# Format: physicochemical
# condition.details: hydrochlorides or oxalates, read-out: solubilities (in water)
Quick list: solubility per entry.
endpoint: solubility

> print(dat)
                                    molecule      result
 1  CC(C(=Cc1ccccc1)Cc1ccccc1)N1CCN(CCN2CCN(C(C)c3ccccc3)CC2)CC1 (stereo not shown) [XXXVIII]   100 mg/mL
 2  Cc1cccc(CC(O)(Cc2cccc(C)c2)C(C)N2CCN(CCN3CCCCC3)CC2)c1 (stereo not shown) [XXI]   100 mg/mL
 3  CC1CCN(CCN2CCN(C(C)C(=Cc3ccccc3)Cc3ccccc3)CC2)CC1 (stereo not shown) [XXXV]    10 mg/mL
 4  CN1CCN(CCCCCCN2CCN(CCC(=Cc3ccccc3)Cc3ccccc3)CC2)CC1 [LXV]   100 mg/mL
 5  CC(C(=Cc1ccccc1)Cc1ccccc1)N1CCN(CCN2CCN(Cc3ccccc3)CC2)CC1 (stereo not shown) [XXXVII]    50 mg/mL
 6  CC(C(=Cc1ccccc1)Cc1ccccc1)N1CC[N+]2(CCCCCC2)CC1 (stereo not shown) [LXVII]    10 mg/mL
 7  CC(C(=Cc1ccccc1)Cc1ccccc1)N1CCN(CCN(C(C)C)C(C)C)CC1 (stereo not shown) [XXVIII]    10 mg/mL
 8  CC1CCCCN1CCN1CCN(C(C)C(=Cc2ccccc2)Cc2ccccc2)CC1 (stereo not shown) [XXXIII]   100 mg/mL
 9  CC(N1CCN(CCCCCCN2CCCCC2)CC1)C(O)(Cc1ccccc1)Cc1ccccc1 (stereo not shown) [XX]   100 mg/mL
10  CC1CCCN(CCN2CCN(C(C)C(O)(Cc3ccccc3)Cc3ccccc3)CC2)C1 (stereo not shown) [VIII]    50 mg/mL
11  CCCCCCCCNCCCCCCN1CCN(C(C)C(=Cc2ccccc2)Cc2ccccc2)CC1 (stereo not shown) [XL]    10 mg/mL
12  CC1CCCN(CCN2CCN(C(C)C(=Cc3ccccc3)Cc3ccccc3)CC2)C1 (stereo not shown) [XXXIV]    25 mg/mL
13  CC(N1CCN(Cc2ccccn2)CC1)C(O)(Cc1ccccc1)Cc1ccccc1 (stereo not shown) [XXII]    50 mg/mL
14  CC(N1CCN(C)CC1)C(O)(Cc1ccccc1)Cc1ccccc1 (stereo not shown) [LI]   200 mg/mL
15  CC1CCCCN1CCN1CCN(C(C)C(O)(Cc2ccccc2)Cc2ccccc2)CC1 (stereo not shown) [VII]    50 mg/mL
16  OC(Cc1ccccc1)(Cc1ccccc1)CN1CCN(CCN2CCCCC2)CC1 [LIX]   100 mg/mL
17  CC1CCN(CCN2CCN(C(C)C(O)(Cc3ccccc3)Cc3ccccc3)CC2)CC1 (stereo not shown) [IX]    50 mg/mL
18  CC(N1CCN(CCN2CCCCC2)CC1)C(O)(Cc1ccccc1)Cc1ccccc1 (stereo not shown) [IV]    50 mg/mL
19  CC(N1CCN(C)CC1)C(O)(Cc1ccc(Cl)cc1)Cc1ccc(Cl)cc1 (stereo not shown) [XLVIII]    50 mg/mL
20  CC(c1ccccc1)N1CCN(CCN2CCN(C(C)C(O)(Cc3ccccc3)Cc3ccccc3)CC2)CC1 (stereo not shown) [XIII]   100 mg/mL
21  Cc1cccc(CC(O)(Cc2cccc(C)c2)C(C)N2CCN(C)CC2)c1 (stereo not shown) [IL]    50 mg/mL
22  CC(N1CCN(CCN2CCCC2)CC1)C(O)(Cc1ccccc1)Cc1ccccc1 (stereo not shown) [III]    50 mg/mL
23  CC(N1CCN(CCN(Cc2ccccc2)Cc2ccccc2)CC1)C(O)(Cc1ccccc1)Cc1ccccc1 (stereo not shown) [XVI]    50 mg/mL
24  CC(N1CCN(CCN2CCN(CCc3ccccc3)CC2)CC1)C(O)(Cc1ccccc1)Cc1ccccc1 (stereo not shown) [XIV]   100 mg/mL
25  CC1CN(CCN2CCN(C(C)C(O)(Cc3ccccc3)Cc3ccccc3)CC2)CCO1 (stereo not shown) [VI]   100 mg/mL
26  CC(C(=Cc1ccccc1)Cc1ccccc1)N1CCN(CCN2CCN(CCc3ccccc3)CC2)CC1 (stereo not shown) [XXXIX]    50 mg/mL
27  CCC(N1CCN(C)CC1)C(O)(Cc1ccccc1)Cc1ccccc1 (stereo not shown) [LVIII]  < 10 mg/mL
28  CC(C(=Cc1ccccc1)Cc1ccccc1)N1CCN(CCN2CCOCC2)CC1 (stereo not shown) [XXXI]   100 mg/mL
29  CC(C(=Cc1ccccc1)Cc1ccccc1)N1CCN(CCN2CCCCC2)CC1 (stereo not shown) [XXX]    10 mg/mL
30  CC(N1CCN(CCO)CC1)C(O)(Cc1ccccc1)Cc1ccccc1 (stereo not shown) [XLVI]   100 mg/mL
31  CC1CN(CCN2CCN(C(C)C(=Cc3ccccc3)Cc3ccccc3)CC2)CCO1 (stereo not shown) [XXXII]   100 mg/mL
32  CCCCCCCC[N+](C)(C)CCN1CCN(C(C)C(=Cc2ccccc2)Cc2ccccc2)CC1 (stereo not shown) [XLIII]  < 10 mg/mL
33  CC(N1CCN(Cc2ccncc2)CC1)C(O)(Cc1ccccc1)Cc1ccccc1 (stereo not shown) [XXIV]   100 mg/mL
34  CCN(CC)CCN1CCN(C(C)C(O)(Cc2ccccc2)Cc2ccccc2)CC1 (stereo not shown) [II]    50 mg/mL
35  CC(C(=Cc1ccccc1)Cc1ccccc1)N1CCN(CCCl)CC1 (stereo not shown) [XLIV]    10 mg/mL
36  CC(N1CCN(CCN2CCOCC2)CC1)C(O)(Cc1ccccc1)Cc1ccccc1 (stereo not shown) [V]    50 mg/mL
37  CNCCCCCCN1CCN(C(C)C(=Cc2ccccc2)Cc2ccccc2)CC1 (stereo not shown) [XLI]   100 mg/mL
